- Test system: Bacteroides stercoris
- method-notes: growth AUC relative to DMSO control (median of replicates) (fraction); higher = more growth (less inhibition), active = hit call of the paper
- stated-conditions: 20 µM; 24 h
Rule: growth AUC of 1 or more gives rule met; anything lower gives rule not met.

[in] Confirm if growth AUC reported for the compound CCOP(=O)(OCC)OCC is 1 or above.
[out] rule met

[in] Field entry: COP(=S)(OC)Oc1nc(Cl)c(Cl)cc1Cl
[out] rule not met

[in] // next record CN(C)S(=O)(=O)N(SC(F)(Cl)Cl)c1ccccc1
[out] rule met

[in] Same for C=C(C)CN(CC)c1c([N+](=O)[O-])cc(C(F)(F)F)cc1[N+](=O)[O-]
[out] rule not met

[in] Can you handle CCOP(=S)(OCC)SCCSCC next?
[out] rule met

[in] # repeat for COP(=S)(NC(C)C)Oc1ccccc1C(=O)OC(C)C (stereo not drawn)
[out] rule met

[in] And Cc1cnc2c(C(=O)O)c(Cl)ccc2c1 ?
[out] rule met

[in] And for COP(=S)(OC)Oc1cc(Cl)c(I)cc1Cl ?
[out] rule met
